B1: library; numbered along this chain (parent)
chain: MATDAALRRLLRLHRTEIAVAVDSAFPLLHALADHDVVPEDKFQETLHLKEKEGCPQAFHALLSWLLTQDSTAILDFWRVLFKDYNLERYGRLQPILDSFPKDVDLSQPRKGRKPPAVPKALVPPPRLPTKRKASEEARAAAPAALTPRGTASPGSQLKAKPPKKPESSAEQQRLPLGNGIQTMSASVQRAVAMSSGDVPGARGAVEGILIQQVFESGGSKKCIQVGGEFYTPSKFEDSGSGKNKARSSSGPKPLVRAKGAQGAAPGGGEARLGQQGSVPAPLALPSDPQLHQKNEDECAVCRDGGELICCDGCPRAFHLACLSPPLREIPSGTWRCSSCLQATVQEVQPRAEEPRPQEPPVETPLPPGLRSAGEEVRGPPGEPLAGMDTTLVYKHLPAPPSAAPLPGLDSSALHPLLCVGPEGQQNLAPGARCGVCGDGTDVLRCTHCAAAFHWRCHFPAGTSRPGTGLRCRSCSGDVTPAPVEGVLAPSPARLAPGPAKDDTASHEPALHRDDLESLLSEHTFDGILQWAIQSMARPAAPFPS

variants of: B1; assay: AIRE transcriptional activation functional score (insulin promoter-GFP; nonsense median 0, synonymous median 1) (normalised score); higher = higher AIRE activity (more reporter activation); settings: with insulin promoter-GFP reporter in HEK293
MEASURED_ATTRIBUTE: AIRE transcriptional activation functional score

V188H : 0.687
A134G : -0.0179

According to the records, this variant `A493N` displays AIRE transcriptional activation functional score of 1.04

The reported AIRE transcriptional activation functional score of the variant `S248I` was 1.16

AIRE transcriptional activation functional score reading for `G379D` : 1.24

Record summary for `S338R` : reported AIRE transcriptional activation functional score = 1.2

Given item `D84K` , the value recorded as its AIRE transcriptional activation functional score is -0.063

Summary for this variant, `V38I` : AIRE transcriptional activation functional score is 1.55

Lookup result for `S195W` ; measured AIRE transcriptional activation functional score: -0.0899
